We begin with a simple list: items and their reported CC50.
- Experiment Summary: in vitro
- Set-up: cytotoxicity alongside the cytopathic effect assay in Vero E6 cells
- Particulars: african green monkey, vero e6 cells; read-out: CPE assay CC50 /

// known answers, use as guide
Compound | Result
Nc1ncnc2c1ncn2[C@@H]1O[C@H](/C=C/c2nc3ccccc3s2)[C@@H](O)[C@H]1O [compound 33] | 21 µM
Nc1ncnn2c([C@@H]3O[C@H](/C=C/c4nc5ccccc5s4)[C@@H](O)[C@H]3O)ccc12 [compound 40] | > 10 µM

input: Report CC50 for Nc1ncnn2c([C@@H]3O[C@H](CNS(=O)(=O)c4ccc5ccccc5c4)[C@@H](O)[C@H]3O)ccc12 [compound 34] please.
output: > 100 µM

input: Report CC50 for Nc1ncnc2c1ncn2[C@@H]1O[C@H](CNS(=O)(=O)c2ccc3ccccc3c2)[C@@H](O)[C@H]1O [compound 32] please.
output: > 100 µM

###

We begin with a simple list: items and their reported IC50.
- Assay Target: human RNMT (Homo sapiens)
- Sequence (O43148 whole entry): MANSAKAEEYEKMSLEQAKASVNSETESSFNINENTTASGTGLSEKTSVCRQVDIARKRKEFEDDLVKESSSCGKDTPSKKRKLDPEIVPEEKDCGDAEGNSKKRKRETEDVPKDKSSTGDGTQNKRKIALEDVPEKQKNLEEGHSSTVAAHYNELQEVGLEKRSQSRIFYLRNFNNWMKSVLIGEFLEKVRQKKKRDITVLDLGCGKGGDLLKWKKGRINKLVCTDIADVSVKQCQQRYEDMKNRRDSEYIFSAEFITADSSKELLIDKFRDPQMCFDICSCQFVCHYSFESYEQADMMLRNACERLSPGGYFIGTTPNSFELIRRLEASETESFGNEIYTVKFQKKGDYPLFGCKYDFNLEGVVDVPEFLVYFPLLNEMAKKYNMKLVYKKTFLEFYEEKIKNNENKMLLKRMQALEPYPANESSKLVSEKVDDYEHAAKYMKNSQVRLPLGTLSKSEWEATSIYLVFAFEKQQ
- Experiment Summary: RNMT methyltransferase assay (Gray et al.)
- Format: biochemical

input: Report IC50 for `Nc1ncnc2c1ncn2[C@@H]1O[C@H](CNc2nc3ccccc3s2)[C@@H](O)[C@H]1O` please.
output: 54.6 µM

input: Report IC50 for `Nc1ncnc2c1ncn2[C@@H]1O[C@H](CNS(=O)(=O)c2ccc3ccccc3c2)[C@@H](O)[C@H]1O` please.
output: > 100 µM

input: Report IC50 for `Nc1ncnc2c1ncn2[C@@H]1O[C@H](CSc2nc3ccccc3[nH]2)[C@@H](O)[C@H]1O` please.
output: > 100 µM

###

- Experiment Summary: physchem
We begin with a simple list: items and their reported logD.
Please give only the number in your answer, with no unit.

input: Report logD for `Nc1ncnc2c1ncn2[C@@H]1O[C@H](CSc2cccc3cn[nH]c23)[C@@H](O)[C@H]1O` please.
output: 0.7

input: Report logD for `Nc1ncnn2c([C@@H]3O[C@H](CCc4nc5ccccc5s4)[C@@H](O)[C@H]3O)ccc12` please.
output: 1.3

###

- Assay Target: SARS-CoV-2 nsp14 (Severe acute respiratory syndrome coronavirus 2)
- Construct: gene rep
- Experiment Summary: RapidFire MS methyltransferase assay
- Assay type: biochemical
- Particulars: read-out: IC50
Property: IC50 (nM)
Report only the number, with the unit nM understood.

Compound | Units Label | Recorded Number
Nc1ncnc2c1ncn2[C@@H]1O[C@H](/C=C/c2nc3ccccc3s2)[C@@H](O)[C@H]1O [compound 33] | nM | 36
Cc1ccc2nc(SC[C@H]3O[C@@H](c4ccc5c(N)ncnn45)[C@H](O)[C@@H]3O)sc2c1 [compound 36] | nM | 340
Nc1ncnc2c1ncn2[C@@H]1O[C@H](CCc2nc3ccccc3s2)[C@@H](O)[C@H]1O [compound 25] | nM | 310
Nc1ncnc2c1ncn2[C@@H]1O[C@H](CSc2ccn3cncc3c2)[C@@H](O)[C@H]1O [compound 17] | nM | 6900
CCc1cn([C@@H]2O[C@H](CSc3nc4ccccc4s3)[C@@H](O)[C@H]2O)c2ncnc(N)c12 [compound 31] | nM | 250

input: Report IC50 for Nc1ncnc2c1ncn2[C@@H]1O[C@H](CSc2ccc3ccccc3n2)[C@@H](O)[C@H]1O [compound 7] please.
output: 330
